Exercise: state measured melting point for each of the compounds provided.

Some compounds with known melting point results, for comparison:
[
  {
    "SUBSTANCE SMILES": "COCCc1sc2ncnc(N)c2c1-c1ccc(NC(=O)Nc2ccc(C)cc2)cc1",
    "OBSERVED": "128 to 132 °C"
  },
  {
    "SUBSTANCE SMILES": "Cc1ccccc1NC(=O)Nc1ccc(-c2c(CCO)sc3ncnc(N)c23)cc1",
    "OBSERVED": "159 to 162 °C"
  },
  {
    "SUBSTANCE SMILES": "Nc1ncnc2sc(Cc3cccnc3)c(-c3ccc(NC(=O)Nc4cccc(Cl)c4)cc3)c12",
    "OBSERVED": "169 to 172 °C"
  },
  {
    "SUBSTANCE SMILES": "NC(=O)N(c1ccc(-c2c(CCO)sc3ncnc(N)c23)cc1)c1cccc(C(F)(F)F)c1",
    "OBSERVED": "155 to 158 °C"
  },
  {
    "SUBSTANCE SMILES": "COCCc1sc2ncnc(N)c2c1-c1ccc(NC(=O)Cc2cccc(C)c2)cc1",
    "OBSERVED": "200 to 202 °C"
  }
]

Now consider a different compound.
So what does the record say about melting point for `Nc1ncnc2sc(Cc3ccccc3)c(-c3ccc(NS(=O)(=O)c4ccccc4)cc3)c12` ? 100 to 105 °C

----------
Exercise: state measured melting point for each of the compounds provided.

[
  {
    "COMPOUND": "COCCc1sc2ncnc(N)c2c1-c1ccc(NS(=O)(=O)c2ccccc2)cc1 [Example 111]",
    "OBSERVED": "206 to 208 °C"
  }
]

Report melting point for every entry below.
1. Nc1ncnc2sc(Cc3ccncc3)c(-c3ccc(NC(=O)Nc4cccc(C(F)(F)F)c4)cc3)c12 [Example 142]
2. COCCc1sc2ncnc(N)c2c1-c1ccc(NC(=O)Nc2cc(C(F)(F)F)ccc2F)cc1 [Example 140]
3. CC(C)c1sc2ncnc(N)c2c1-c1ccc(NC(=O)c2ccccc2)cc1 [Example 8]
4. Cc1cccc(CC(=O)Nc2ccc(-c3c(CCO)sc4ncnc(N)c34)cc2)c1 [Example 350]
5. Cc1ccc(NC(=O)Nc2ccc(-c3c(Cc4ccccc4)sc4ncnc(N)c34)cc2)cc1 [Example 9]

["162 to 166 °C", "209 to 211 °C", "> 250 °C", "142 to 144 °C", "169 to 173 °C"]

Report melting point for every entry below.
1. COCCc1sc2ncnc(N)c2c1-c1ccc(N(C(N)=O)c2ccccc2C)cc1 [Example 137]
2. COCCc1sc2ncnc(N)c2c1-c1ccc(NC(=O)c2ccccc2)cc1 [Example 113]

1: 217 to 219 °C; 2: 200 to 202 °C
